Values were extracted from patent US6362208B1.

Recorded melting point by entry

MOLECULE | melting point
CC(C)c1cccc(C(C)C)c1NC(=O)CCCCCSc1nc2ncccc2o1 | 94 to 95 °C
COC(=O)c1ccc2nc(SCCCCCC(=O)Nc3c(C(C)C)cccc3C(C)C)oc2c1 | 157 to 158 °C
COC(=O)c1cccc2nc([S+]([O-])CCCCCCCNC(=O)Nc3c(C(C)C)cccc3C(C)C)oc12 (centres unmarked) | 145 to 147 °C
COC(=O)c1ccc2oc(SCCCCCC(=O)Nc3c(C(C)C)cccc3C(C)C)nc2c1 | 104 to 106 °C
CC(C)c1cccc(C(C)C)c1NC(=O)CCCCCSc1nc2cccc(N(C)C)c2o1 | 129 to 130 °C
CC(C)c1cccc(C(C)C)c1NC(=O)CCCCCSc1nc2cc(OCc3ccccc3)ccc2o1 | 102 to 104 °C
CC(C)c1cccc(C(C)C)c1NC(=O)CCCCCSc1nc2cnccc2[nH]1 | 96 to 98 °C
CC(C)c1cccc(C(C)C)c1NC(=O)CCCCCSc1nc2cccnc2s1 | 137 to 138 °C
